# testSystem: Large T antigen (Simian virus 40) (UniProt P03070)
# Sequence (P03070 whole entry, looked up): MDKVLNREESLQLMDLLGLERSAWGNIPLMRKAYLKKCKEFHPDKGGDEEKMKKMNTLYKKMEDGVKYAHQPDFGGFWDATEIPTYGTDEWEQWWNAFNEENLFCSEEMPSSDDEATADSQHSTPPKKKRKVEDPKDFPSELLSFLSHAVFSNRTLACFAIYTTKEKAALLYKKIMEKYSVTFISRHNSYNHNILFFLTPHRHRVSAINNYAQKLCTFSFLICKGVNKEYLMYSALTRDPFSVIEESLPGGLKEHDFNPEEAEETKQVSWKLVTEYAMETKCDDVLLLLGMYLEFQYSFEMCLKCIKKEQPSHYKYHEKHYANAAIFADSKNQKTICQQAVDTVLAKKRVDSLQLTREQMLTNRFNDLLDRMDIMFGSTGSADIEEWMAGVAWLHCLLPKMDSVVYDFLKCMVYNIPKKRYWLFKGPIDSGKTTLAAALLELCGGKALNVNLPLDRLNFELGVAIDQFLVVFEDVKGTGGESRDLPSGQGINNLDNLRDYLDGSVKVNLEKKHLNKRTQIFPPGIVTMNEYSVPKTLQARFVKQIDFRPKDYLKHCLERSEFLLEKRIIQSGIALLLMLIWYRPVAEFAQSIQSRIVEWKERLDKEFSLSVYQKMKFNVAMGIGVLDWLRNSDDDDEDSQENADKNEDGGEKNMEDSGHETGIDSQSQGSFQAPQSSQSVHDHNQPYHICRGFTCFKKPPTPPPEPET
# procedureDetails: SV40 large T antigen inhibitors, biochemical (AID 1903)
# conditionDescription: SV40 large T antigen ATPase/helicase inhibition assay; at 20 µM; active compounds read high
About 1,200 (0.39%) of roughly 310,000 compounds were called active. Not all results are given here. Entries with a potency or affinity are not part of this list.
parameter: inhibition (%)
Numbers only, in %.

Fill in inhibition for each of the 7 molecules listed.
1. O=C(NC1CCSc2ccccc21)c1ccc(Cl)c(S(=O)(=O)N2CCOCC2)c1 (configuration not stated)
2. COc1ccc(-c2nc(CS(=O)(=O)CC(=O)NCCCc3ccccc3)c(C)o2)cc1
3. COc1cc(NC(=O)CN2CCCCC2C)c(C)cc1[N+](=O)[O-] (configuration not stated)
4. CCn1nnnc1SCC(=O)Nc1cccc(NC(C)=O)c1
5. CCC(C)n1c(SCC(=O)/C(C#N)=C(\C)N)nc2ccccc2c1=O (configuration not stated)
6. Nn1c(SCC(=O)NC(=O)NCc2ccco2)nnc1-c1ccc(OC(F)F)cc1
7. Cc1ccc(C)c(NC(=O)CN(C)C(=O)c2cc3ccccc3o2)c1

Solution:
1: 9.03; 2: -0.82; 3: -0.94; 4: 0.63; 5: 7.34; 6: 19.9; 7: 13.7
